Tested on: MV4-11
Procedure summary: MTS proliferation assay 72 h, MV4-11
Assay type: cell-based
Condition label: Homo sapiens, MV4-11, read-out: Estimated absolute µM IC50 (95% CI), 4-parameter logistic model
Reported property: IC50 (µM)
# output: bare number, implied unit µM

Provide IC50, tested on MV4-11, for `O=C(c1ccc(Oc2ccccc2)cc1Cl)c1c[nH]c2ncnc(N[C@@H]3CC[C@@H](CO)OC3)c12` . 1.45

---

Tested on: Ba/F3 FLT3-ITD/F691L
Procedure summary: MTT proliferation assay 72 h, Ba/F3 FLT3-ITD/F691L
Format: cell-based, murine
Condition label: Mus musculus, BaF3, read-out: Estimated absolute µM IC50 and 95% CI
Reported property: IC50 (µM)
# output: bare number, implied unit µM

Identify the reported IC50 for the following entry. O=C(c1ccc(Oc2ccccc2)cc1Cl)c1c[nH]c2ncnc(N[C@@H]3CC[C@@H](CO)OC3)c12 [ARQ 531] 7.12
